System: Rat plasma proteins
Assay: fraction bound to plasma proteins and brain, late-stage follow-up, ADME assay for V1a-R antagonist project, biochemical, LC-MS, human, mouse, rat plasma, rat brain (AID 743030)
Conditions: equilibrium dialysis, plasma/brain binding, 16 h, at 2.5 µM

SMILES | READOUT UNITS | fraction bound
O=C(C1CCN(c2ccc(Cl)cn2)CC1)N(CC1CC1)c1ccc(Cl)cc1 | % | 99.5

====

System: Mouse plasma proteins
Assay: fraction bound to plasma proteins and brain, late-stage follow-up, ADME assay for V1a-R antagonist project, biochemical, LC-MS, human, mouse, rat plasma, rat brain (AID 743030)
Details: equilibrium dialysis, plasma/brain binding, 16 h, at 2.5 µM
RESULT TYPE: fraction bound

SMILES | RESULT TYPE | RECORDED MEASUREMENT
O=C(C1CCN(c2ccc(Cl)cn2)CC1)N(CC1CC1)c1ccc(Cl)cc1 | fraction bound | 97.7%
